# test description: Cytotoxicity against mock-infected human MT4 cells assessed as reduction in cell viability measured after 5 days by MTT assay
# Assay type: cell-based
# condition: time 5 day
recorded metric: CC50 at 120 h (µM)
All answers are understood in µM, so give the number only.

Here is how some compounds turned out for CC50 at 120 h.
INSERT INTO assay_data (smiles_data, recorded_value) VALUES
  ('Cc1cc(C#N)cc(C)c1Oc1nc(Nc2ccc(C#N)nc2)nc2c1CCCC2', 244),
  ('Cc1cc(C#N)cc(C)c1Oc1nc(Nc2ccc(C#N)cc2)nc2c1ccn2CC(=O)N1CCOCC1', 2.3),
  ('Cc1cc(C=O)cc(C)c1Oc1nc(Nc2ccc(C#N)cn2)nc2c1CCCC2', 293);

Task item: Quick one: CC50 at 120 h of Cc1cc(C#N)cc(C)c1Oc1nc(Nc2ccc(C#N)nc2)nc2c1ccn2COCC[Si](C)(C)C ?
Reply: 117

====

# Test system: Human immunodeficiency virus 1
# test description: Antiviral activity against HIV1 harboring reverse transcriptase L100I mutant infected in human MT4 cells assessed as protection against virus-induced cytopathic effect incubated for 5 days by MTT assay
# Assay type: functional, organism-based
# condition: Human immunodeficiency virus 1, MT4, 120 h
recorded metric: pEC50
# pEC50: negative log10 of molar concentration; output just the value

INSERT INTO assay_data (smiles_data, system_name, recorded_value) VALUES
  ('Cc1cc(C#N)cc(C)c1Oc1nc(Nc2ccc(C#N)cc2)nc2c1CCCC2', 'Human immunodeficiency virus 1', 7.89),
  ('Cc1cc(C)c(Oc2nc(Nc3ccc(C#N)cc3)nc3c2CCCC3)c(C)c1', 'Human immunodeficiency virus 1', 7.01),
  ('Cc1cc(/C=C/C#N)cc(C)c1Oc1nc(Nc2ccc(CC#N)cc2)nc2c1CCCC2', 'Human immunodeficiency virus 1', 7.31),
  ('Cc1cc(C#N)cc(C)c1Oc1nc(Nc2ccc(C#N)cc2)nc2c1ccn2CC(=O)N1CCOCC1', 'Human immunodeficiency virus 1', 6.81),
  ('Cc1cc(C=O)cc(C)c1Oc1nc(Nc2ccc(C#N)cc2)nc2c1CCCC2', 'Human immunodeficiency virus 1', 6.31);

Task item: Give recorded pEC50 with Human immunodeficiency virus 1 for the following compound: Cc1cc(C#N)cc(C)c1Oc1nc(Nc2ccc(CC#N)cc2)nc2c1CCCC2
Reply: 7.16

Task item: Try this compound too: Cc1cc(/C=C/C#N)cc(C)c1Oc1nc(Nc2ccc(C#N)nc2)nc2c1CCCC2
Reply: 7.89

Task item: Try this compound too: Cc1cc(/C=C/C#N)cc(C)c1Oc1nc(Nc2ccc(C#N)cc2)nc2c1CCCC2
Reply: 7.74

====

# test description: Selectivity index, ratio of CC50 for mock-infected human MT4 cells to EC50 for HIV1 3B infected in human MT4 cells
# Assay type: toxicity, cell-based
# condition: MT4 cells (mock-infected and HIV1 3B infected), read-out: Ratio CC50/EC50
recorded metric: selectivity ratio

Here is how some compounds turned out for selectivity ratio.
INSERT INTO assay_data (smiles_data, recorded_metric, recorded_value) VALUES
  ('Cc1cc(C#N)cc(C)c1Oc1nc(Nc2ccc(C#N)cc2)nc2c1ccn2CO', 'selectivity ratio', 137),
  ('Cc1cc(C)c(Oc2nc(Nc3ccc(C#N)cc3)nc3c2CCCC3)c(C)c1', 'selectivity ratio', 177),
  ('Cc1cc(C=O)cc(C)c1Oc1nc(Nc2ccc(C#N)nc2)nc2c1CCCC2', 'selectivity ratio', 590);

Turning to the following compound.
Task item: Quick one: selectivity ratio of Cc1cc(C#N)cc(C)c1Oc1nc(Nc2ccc(C#N)nc2)nc2c1ccn2CO ?
Reply: ≥ 2950

====

# test description: Half life in human liver microsomes at 1 uM in presence of NADPH by LC-MS/MS analysis
# Format: ADME, Microsome
half-life at 1 µM listing for selected molecules.
All answers are understood in min, so give the number only.

Here is how some molecules turned out for half-life at 1 µM.
INSERT INTO results (smiles_data, recorded_value) VALUES
  ('Cc1cc(C#N)cc(C)c1Oc1nc(Nc2ccc(C#N)cc2)nc2c1ccn2CC(=O)N1CCOCC1', 3.1),
  ('Cc1cc(/C=C/C#N)cc(C)c1Oc1nc(Nc2ccc(C#N)nc2)nc2c1CCCC2', 26.5),
  ('Cc1cc(/C=C/C#N)cc(C)c1Oc1nc(Nc2ccc(C#N)cc2)nn2cccc12', 43.3),
  ('Cc1cc(/C=C/C#N)cc(C)c1Nc1ccnc(Nc2ccc(C#N)cc2)n1', 12.8);

Turning to the following molecule.
Task item: Quick one: half-life at 1 µM of Cc1cc(/C=C/C#N)cc(C)c1Oc1nc(Nc2ccc(C#N)cc2)nc2c1CCCC2 ?
Reply: 27.4

====

# test description: Selectivity index, ratio of CC50 for mock-infected human MT4 cells to EC50 for HIV1 RES056 infected in human MT4 cells
# Format: toxicity, cell-based
# condition: MT4 cells (mock-infected and HIV1 RES056 infected), read-out: Ratio CC50/EC50
recorded metric: selectivity ratio

Here is how some compounds turned out for selectivity ratio.
INSERT INTO results (compound, recorded_metric, recorded_value) VALUES
  ('Cc1cc(C=O)cc(C)c1Oc1nc(Nc2ccc(C#N)cc2)nc2c1CCCC2', 'selectivity ratio', 5),
  ('Cc1cc(/C=C/C#N)cc(C)c1Oc1nc(Nc2ccc(C#N)nc2)nc2c1CCCC2', 'selectivity ratio', 150),
  ('Cc1cc(C=O)cc(C)c1Oc1nc(Nc2ccc(C#N)cn2)nc2c1CCCC2', 'selectivity ratio', 58),
  ('Cc1cc(C#N)cc(C)c1Oc1nc(Nc2ccc(C#N)nc2)nc2c1ccn2COCC[Si](C)(C)C', 'selectivity ratio', '< 1'),
  ('Cc1cc(C#N)cc(C)c1Oc1nc(Nc2ccc(C#N)cc2)nc2c1ccn2CO', 'selectivity ratio', 6);

Task item: Quick one: selectivity ratio of Cc1cc(C)c(Oc2nc(Nc3ccc(C#N)cc3)nc3c2CCCC3)c(C)c1 ?
Reply: 8

Task item: Try this compound too: Cc1cc(/C=C/C(N)=O)cc(C)c1Oc1nc(Nc2ccc(C#N)cc2)nn2cccc12
Reply: 10

Task item: Try this compound too: Cc1cc(C#N)cc(C)c1Oc1nc(Nc2ccc(C#N)cc2)nc2c1ccn2COCC[Si](C)(C)C
Reply: < 1

Task item: Try this compound too: Cc1cc(C=O)cc(C)c1Oc1nc(Nc2ccc(C#N)nc2)nc2c1CCCC2
Reply: 2

Task item: Try this compound too: Cc1cc(/C=C/C#N)cc(C)c1Oc1nc(Nc2ccc(C#N)cc2)nn2cccc12
Reply: 81

Task item: Try this compound too: Cc1cc(C#N)cc(C)c1Oc1nc(Nc2ccc(C#N)nc2)nc2c1CCCC2
Reply: < 19

====

# test description: Cytotoxicity against mock-infected human MT4 cells assessed as reduction in cell viability measured after 5 days by MTT assay
# Format: cell-based
# condition: time 5 day
CC50 at 120 h listing for selected compounds.
All answers are understood in µM, so give the number only.

INSERT INTO results (smiles_data, recorded_metric, unit_text, recorded_value) VALUES
  ('Cc1cc(C#N)cc(C)c1Oc1nc(Nc2ccc(CC#N)cc2)nc2c1CCCC2', 'CC50 at 120 h', 'µM', 4.5),
  ('Cc1cc(C#N)cc(C)c1Oc1nc(Nc2ccc(C#N)cc2)nc2c1ccn2CO', 'CC50 at 120 h', 'µM', 0.83);

Task item: Quick one: CC50 at 120 h of Cc1cc(/C=C/C(N)=O)cc(C)c1Oc1nc(Nc2ccc(C#N)cc2)nn2cccc12 ?
Reply: 57.6

====

# test description: Cytotoxicity against mock-infected human MT4 cells assessed as reduction in cell viability measured after 5 days by MTT assay
# Type: cell-based
# condition: time 5 day
recorded metric: CC50 at 120 h

Here is how some compounds turned out for CC50 at 120 h.
INSERT INTO measurements (smiles_data, recorded_value) VALUES
  ('Cn1c(Cn2ccc(C(F)(F)F)c(Oc3cc(Cl)cc(C#N)c3)c2=O)n[nH]c1=O', '> 294 µM'),
  ('Cc1cc(C=O)cc(C)c1Oc1nc(Nc2ccc(C#N)cc2)nc2c1CCCC2', '5.9 µM'),
  ('Cc1cc(C#N)cc(C)c1Oc1nc(Nc2ccc(C#N)nc2)nc2c1ccn2CO', '≥ 138 µM'),
  ('Cc1cc(C#N)cc(C)c1Oc1nc(Nc2ccc(C#N)nc2)nn2cccc12', '69.1 µM');

Turning to the following compound.
Task item: Quick one: CC50 at 120 h of Cc1cc(/C=C/C#N)cc(C)c1Oc1nc(Nc2ccc(C#N)nc2)nc2c1CCCC2 ?
Reply: 8.8 µM

====

For reference, IC50 measured on Human immunodeficiency virus type 1 reverse transcriptase (Human immunodeficiency virus 1):
All answers are understood in µM, so give the number only.

INSERT INTO assay_data (smiles_data, unit_text, recorded_value) VALUES
  ('Cc1cc(C#N)cc(C)c1Oc1nc(Nc2ccc(C#N)cc2)nc2c1ccn2CC(=O)N1CCOCC1', 'µM', 0.155),
  ('Cc1cc(/C=C/C#N)cc(C)c1Oc1nc(Nc2ccc(C#N)cc2)nc2c1CCCC2', 'µM', 0.119),
  ('Cc1cc(C#N)cc(C)c1Oc1nc(Nc2ccc(S(C)(=O)=O)cc2)nc2c1CCCC2', 'µM', 0.069);

Task item: Quick one: IC50 of Cc1cc(/C=C/C#N)cc(C)c1Oc1nc(Nc2ccc(C#N)nc2)nc2c1CCCC2 ?
Reply: 0.147
